Tested on: Mus musculus
Method Notes: Toxicity in ip dosed C3H X DBA2 F1 hybrid mouse […] with mouse L1210 cells on day 0 and dosed once daily on days 1 to 5 measured after 50 days
Format: organism-based
Condition Label: in vivo, 1200 h
Measured Quantity: LD10
# output: numeric value plus its unit

A selection of reference data follows.
Considering C[n+]1ccc(Nc2ccc(NC(=O)c3ccc(/C=C/C4=NCCCN4)cc3)cc2)c2cc(N)ccc21.Cc1ccc(S(=O)(=O)O)cc1.Cc1ccc(S(=O)(=O)[O-])cc1 , its LD10 with Mus musculus was recorded as 7 mg/kg

Considering C/C(=N\NC(=N)N)c1ccc(NC(=O)c2ccc(Nc3cc[n+](C)c4cc([N+](=O)[O-])ccc34)cc2)cc1.Cl.[Cl-] , its LD10 with Mus musculus was recorded as 56 mg/kg

Considering C[n+]1ccc(Nc2ccc(NC(=O)CCCCCCC(=O)Nc3ccc(Nc4cc[n+](C)cc4)cc3)cc2)cc1.[Br-].[Br-] , its LD10 with Mus musculus was recorded as 30 mg/kg

Considering CCC[n+]1ccc(Nc2ccc(NC(=O)c3ccc(C(=O)Nc4ccc(Nc5cc[n+](CCC)cc5)cc4)cc3)cc2)cc1.Cc1ccc(S(=O)(=O)[O-])cc1.Cc1ccc(S(=O)(=O)[O-])cc1 , its LD10 with Mus musculus was recorded as 4.1 mg/kg

Considering CCC[n+]1cccc2cc(NC(=O)COc3ccc(C(=O)Nc4ccc5c(ccc[n+]5CCC)c4)cc3)ccc21.Cc1ccc(S(=O)(=O)[O-])cc1.Cc1ccc(S(=O)(=O)[O-])cc1 , its LD10 with Mus musculus was recorded as 8.3 mg/kg

Considering C[n+]1ccc(Nc2ccc(NC(=O)c3ccc(Nc4cc[n+](C)c5c(Cl)cccc45)cc3)cc2)cc1.Cc1ccc(S(=O)(=O)[O-])cc1.Cc1ccc(S(=O)(=O)[O-])cc1 , its LD10 with Mus musculus was recorded as 55 mg/kg

Considering CC[n+]1c(C)cc(Nc2ccc(NC(=O)c3ccc(C(=O)Nc4ccc(Nc5cc(C)[n+](CC)c(N)n5)cc4)cc3)cc2)nc1N.Cc1ccc(S(=O)(=O)[O-])cc1.Cc1ccc(S(=O)(=O)[O-])cc1 , its LD10 with Mus musculus was recorded as 200 mg/kg

Considering CC[n+]1cccc(NC(=O)c2ccc(NC(=O)c3ccc(C(=O)Nc4ccc(C(=O)Nc5ccc[n+](CC)c5)c(N)c4)c(N)c3)cc2N)c1.Cc1ccc(S(=O)(=O)[O-])cc1.Cc1ccc(S(=O)(=O)[O-])cc1 , its LD10 with Mus musculus was recorded as 14 mg/kg

Further cases:
Considering COc1ccc2c(c1)c(Nc1ccc(C(=O)Nc3ccc(Nc4cc[n+](C)cc4)cc3)cc1)cc[n+]2C.Cc1ccc(S(=O)(=O)[O-])cc1.Cc1ccc(S(=O)(=O)[O-])cc1 , its LD10 with Mus musculus was recorded as 50 mg/kg

Considering C[n+]1ccc(Nc2ccc(NC(=O)c3ccc(Nc4cc[n+](C)c5cc([N+](=O)[O-])ccc45)cc3)cc2)cc1.Cc1ccc(S(=O)(=O)[O-])cc1.Cc1ccc(S(=O)(=O)[O-])cc1 , its LD10 with Mus musculus was recorded as 27 mg/kg

Considering Br.C/C(=N\NC(=N)N)c1ccc(NC(=O)Nc2ccc(Nc3cc[n+](C)c4ccc(N)cc34)cc2)cc1.[Br-] , its LD10 with Mus musculus was recorded as 150 mg/kg
